Entries and their Mortality rate values follow.
- System: ICR mice
- PROTOCOL: Acute toxicity test in mice by single administration
- Type: in vivo
- RUN CONDITIONS: single gavage dose 600 mg/kg; 14 days; deaths/animals

| SUBSTANCE SMILES | SYSTEM TESTED | Mortality rate |
| --- | --- | --- |
| COc1cc2c(c(OC)c1OC)-c1ccc(C(=O)Nc3ccccc3)c(=O)cc1[C@@H](NC(C)=O)CC2 | ICR mice | 0/6 |
| COC(=O)c1ccc2c(cc1=O)[C@@H](NC(C)=O)CCc1cc(OC)c(OC)c(OC)c1-2 | ICR mice | 0/6 |
| CNC(=O)c1ccc2c(cc1=O)[C@@H](NC(C)=O)CCc1cc(OC)c(OC)c(OC)c1-2 | ICR mice | 0/6 |

Continue with the next compound.
In: Can you look up Mortality rate on ICR mice for CCNC(=O)c1ccc2c(cc1=O)[C@@H](NC(C)=O)CCc1cc(OC)c(OC)c(OC)c1-2 ?
Out: 0/6

----------
AUC(0-inf) values for the compounds below.
- PROTOCOL: In vivo pharmacokinetics in SD rats
- RUN CONDITIONS: Sprague-Dawley, rat, in vivo, po, 10 mg/kg
Dear colleague, please return just the value in ng·h/mL, with no unit written.

Example results:
| SUBSTANCE SMILES | AUC(0-inf) / ng·h/mL |
| --- | --- |
| [2H]C([2H])([2H])NC(=O)c1ccc2c(cc1=O)[C@@H](NC(C)=O)CCc1cc(OC)c(OC)c(OC)c1-2 | 3720 |
| CCNC(=O)c1ccc2c(cc1=O)[C@@H](NC(C)=O)CCc1cc(OC)c(OC)c(OC)c1-2 | 6260 |
| [2H]C([2H])([2H])Oc1c(OC)c(OC)cc2c1-c1ccc(C(=O)NC)c(=O)cc1[C@@H](NC(C)=O)CC2 | 3340 |
| [2H]C([2H])([2H])Oc1cc2c(c(OC)c1OC([2H])([2H])[2H])-c1ccc(C(=O)NC)c(=O)cc1[C@@H](NC(C)=O)CC2 | 3380 |

In: Entry under review: CNC(=O)c1ccc2c(cc1=O)[C@@H](NC(C)=O)CCc1cc(OC)c(OC)c(OC)c1-2 . Reported AUC(0-inf)?
Out: 3300

In: Which measured AUC(0-inf) value corresponds to COc1cc2c(c(OC)c1OC)-c1ccc(C(=O)Nc3ccccc3)c(=O)cc1[C@@H](NC(C)=O)CC2 ?
Out: 15100

----------
Below is a list of entries, each paired with its recorded Gait Score value.
- Tested on: gouty arthritis rats (sodium urate, right ankle and knee joint cavities)
- PROTOCOL: Pharmacodynamics experiment B on gouty arthritis rats: gait score
- Assay type: in vivo, SD rats
- RUN CONDITIONS: 48 h; dose 0.6 mg/kg gavage; mean
API doc: respond with a numeric literal and nothing else, no unit.

| COMPOUND | REPORTED VALUE |
| --- | --- |
| CNC(=O)c1cc2c(ccc1=O)-c1c(cc(OC)c(OC)c1OC)CC[C@@H]2NC(C)=O | 0 |
| COc1cc2c(c(OC)c1OC)-c1ccc(OC)c(=O)cc1[C@@H](NC(C)=O)CC2 [colchicine, reference compound] | 0.02 |
| COc1cc2c(c(OC)c1OC)-c1ccc(=O)c(O[C@H]3CCOC3)cc1[C@@H](NC(C)=O)CC2 | 0.1 |
| COc1cc2c(c(OC)c1OC)-c1ccc(-n3ccc(C)n3)c(=O)cc1[C@@H](NC(C)=O)CC2 | 0 |
| COc1cc2c(c(OC)c1OC)-c1ccc(S(N)(=O)=O)c(=O)cc1[C@@H](NC(C)=O)CC2 | 0 |

In: What is its Gait Score for gouty arthritis rats (sodium urate, right ankle and knee joint cavities)? Entry: COc1cc2c(c(OC)c1OC)-c1cc(C)c(O[C@H]3CCOC3)c(=O)cc1[C@@H](NC(C)=O)CC2
Out: 0

In: Field: Gait Score (gouty arthritis rats (sodium urate, right ankle and knee joint cavities)). Entry: CNC(=O)N[C@H]1CCc2cc(OC)c(OC)c(OC)c2-c2cc(C)c(OC)c(=O)cc21
Out: 0

----------
- PROTOCOL: In vivo pharmacokinetics in SD rats
- RUN CONDITIONS: Sprague-Dawley, rat, in vivo, po, 10 mg/kg
RESULT TYPE: Cmax (ng/mL)
Value expressed in ng/mL; do not type the unit.

Some compounds with recorded Cmax:
| COMPOUND | REPORTED VALUE |
| --- | --- |
| COc1cc2c(c(OC)c1OC)-c1ccc(C(=O)Nc3ccccc3)c(=O)cc1[C@@H](NC(C)=O)CC2 [Compound 58] | 2040 |
| CNC(=O)c1ccc2c(cc1=O)[C@@H](NC(C)=O)CCc1cc(OC)c(OC)c(OC)c1-2 [Compound 48] | 1930 |
| [2H]C([2H])([2H])NC(=O)c1ccc2c(cc1=O)[C@@H](NC(C)=O)CCc1cc(OC)c(OC)c(OC)c1-2 [Compound 56] | 1640 |

In: Reported Cmax for [2H]C([2H])([2H])Oc1c(OC)c(OC)cc2c1-c1ccc(C(=O)NC)c(=O)cc1[C@@H](NC(C)=O)CC2 [Compound 132] : what is it?
Out: 1780

In: I have this compound here, CCNC(=O)c1ccc2c(cc1=O)[C@@H](NC(C)=O)CCc1cc(OC)c(OC)c(OC)c1-2 [Compound 55] , and I need its recorded Cmax.
Out: 2040

In: What value of Cmax has been recorded for this entry: [2H]C([2H])([2H])Oc1cc2c(c(OC)c1OC([2H])([2H])[2H])-c1ccc(C(=O)NC)c(=O)cc1[C@@H](NC(C)=O)CC2 [Compound 124]
Out: 2260

----------
The following compounds are shown together with reported AUC(0-inf) values.
- PROTOCOL: In vivo pharmacokinetics in SD rats
- RUN CONDITIONS: Sprague-Dawley, rat, in vivo, po; Gavage - 10 mg/kg; read-out: AUCINF
Form entry: value (µg·h/mL) — number only.

| COMPOUND | READOUT UNITS | AUC(0-inf) |
| --- | --- | --- |
| CNC(=O)c1ccc2c(cc1=O)[C@@H](NC(C)=O)CCc1cc3c(c(OC)c1-2)OCO3 [Compound 125] | µg·h/mL | 5.46 |

In: Which AUC(0-inf) reading was recorded for the compound COc1cc2c(c(OC)c1OC)-c1ccc(OC)c(=O)cc1[C@@H](NC(C)=O)CC2 [colchicine, reference compound] ?
Out: 0.735

----------
- PROTOCOL: In vivo pharmacokinetics in SD rats
- RUN CONDITIONS: Sprague-Dawley, rat, in vivo, iv, 1 mg/kg
# reported AUC(0-inf); entries follow
Write down the numeric answer in ng·h/mL and omit the unit.

Examples with their reported AUC(0-inf) follow.
| MOLECULE | READOUT UNITS | REPORTED VALUE |
| --- | --- | --- |
| [2H]C([2H])([2H])Oc1c(OC)c(OC)cc2c1-c1ccc(C(=O)NC)c(=O)cc1[C@@H](NC(C)=O)CC2 [Compound 132] | ng·h/mL | 702 |
| COc1cc2c(c(OC)c1OC)-c1ccc(C(=O)Nc3ccccc3)c(=O)cc1[C@@H](NC(C)=O)CC2 [Compound 58] | ng·h/mL | 1390 |

In: Would you kindly share the measured AUC(0-inf) for [2H]C([2H])([2H])NC(=O)c1ccc2c(cc1=O)[C@@H](NC(C)=O)CCc1cc(OC)c(OC)c(OC)c1-2 [Compound 56] ?
Out: 597

In: Request the reported AUC(0-inf) associated with CNC(=O)c1ccc2c(cc1=O)[C@@H](NC(C)=O)CCc1cc(OC)c(OC)c(OC)c1-2 [Compound 48]
Out: 580

In: Report AUC(0-inf) for [2H]C([2H])([2H])Oc1cc2c(c(OC)c1OC([2H])([2H])[2H])-c1ccc(C(=O)NC)c(=O)cc1[C@@H](NC(C)=O)CC2 [Compound 124] please.
Out: 756

In: Field request: AUC(0-inf) | item: CCNC(=O)c1ccc2c(cc1=O)[C@@H](NC(C)=O)CCc1cc(OC)c(OC)c(OC)c1-2 [Compound 55]
Out: 543

----------
- PROTOCOL: In vivo pharmacokinetics in SD rats
- RUN CONDITIONS: Sprague-Dawley, rat, in vivo, iv, 1 mg/kg
RESULT TYPE: half-life
// unit must come after the numeric part

| COMPOUND | half-life |
| --- | --- |
| [2H]C([2H])([2H])Oc1cc2c(c(OC)c1OC([2H])([2H])[2H])-c1ccc(C(=O)NC)c(=O)cc1[C@@H](NC(C)=O)CC2 [Compound 124] | 38.6 min |

In: Can you share its half-life? I mean this compound: [2H]C([2H])([2H])NC(=O)c1ccc2c(cc1=O)[C@@H](NC(C)=O)CCc1cc(OC)c(OC)c(OC)c1-2 [Compound 56]
Out: 35.4 min

In: So what does the record say about half-life for [2H]C([2H])([2H])Oc1c(OC)c(OC)cc2c1-c1ccc(C(=O)NC)c(=O)cc1[C@@H](NC(C)=O)CC2 [Compound 132] ?
Out: 127 min

These data points were gathered from patent US20250129012A1.
